// provenance: ChEMBL document CHEMBL1955776

# Tested on: A2780
# test summary: Antitumor activity against human A2780 cells co-cultured with mesothelial cell monolayers by firefly luciferase reporter gene assay
# Assay type: functional, cell-based
Binary call on IC50 with cut-off 3000 nM: strictly below means class 1, and equality or higher means class 0.

CC(C)(C(=O)NCc1ccc(Cl)cc1)c1ccc(S(=O)(=O)/C=C/C#N)cc1    class 0
CC(C)(C(=O)Nc1ccccc1)c1ccc(S(=O)(=O)/C=C/C#N)cc1    class 1
COc1cccc(NC(=O)C(C)(C)c2ccc(S(=O)(=O)/C=C/C#N)cc2)c1    class 1
CC(C)CNC(=O)C(C)(C)c1ccc(S(=O)(=O)/C=C/C#N)cc1    class 0

Next item in the queue.
Given the entry "CC(C)(C)c1ccc(S(=O)(=O)/C=C/C#N)cc1" , would its reported IC50 be below 3000 nM? class 1
